Test system: A-375
Experiment: Cytotoxicity against human A375 cells assessed as growth inhibition at 10 uM after 24 hrs by MTT assay relative to control
Type: functional
Details: A-375, 24 h, read-out: GI
Give inhibition of growth at 10 µM for every item shown.
Numbers only, in %.

Record excerpt, results attached:
input: So what does the record say about inhibition of growth at 10 µM for O=S(=O)(c1ccc(N/N=C/c2ccc(O)c(O)c2)nc1)N1CCc2ccccc2C1 ?
output: 8.41

input: So what does the record say about inhibition of growth at 10 µM for O=S(=O)(c1ccc(N/N=C/c2ccc(O)c(O)c2)nc1)N1CCCCC1 ?
output: 5.06

input: So what does the record say about inhibition of growth at 10 µM for C[C@@H](NS(=O)(=O)c1ccc(N/N=C/c2ccc(O)c(O)c2)nc1)C1CCCCC1 ?
output: 3.45

input: So what does the record say about inhibition of growth at 10 µM for CN(C)S(=O)(=O)c1ccc(N/N=C/c2ccc(O)c(O)c2)nc1 ?
output: 1.44

input: So what does the record say about inhibition of growth at 10 µM for CCOC(=O)CN(C)S(=O)(=O)c1ccc(N/N=C/c2ccc(O)c(O)c2)nc1 ?
output: -13.7

Please state, for each entry, its recorded inhibition of growth at 10 µM.
1. O=S(=O)(Nc1cccc(Cl)c1)c1ccc(N/N=C/c2ccc(O)c(O)c2)nc1
2. O=S(=O)(c1ccc(N/N=C/c2ccc(O)c(O)c2)nc1)N1CCC(O)CC1
3. COCCNS(=O)(=O)c1ccc(N/N=C/c2ccc(O)c(O)c2)nc1
4. CN1CCN(S(=O)(=O)c2ccc(N/N=C/c3ccc(O)c(O)c3)nc2)CC1
5. O=S(=O)(Nc1ccc(O)cc1)c1ccc(N/N=C/c2ccc(O)c(O)c2)nc1
6. O=S(=O)(c1ccc(N/N=C/c2ccc(O)c(O)c2)nc1)N1CCCC1
7. O=S(=O)(Nc1cc(Cl)ccc1O)c1ccc(N/N=C/c2ccc(O)c(O)c2)nc1

output:
[71.7, -14.1, -11.4, 1.29, -15.1, -2.01, -3.03]

Please state, for each entry, its recorded inhibition of growth at 10 µM.
1. O=S(=O)(c1ccc(N/N=C/c2ccc(O)c(O)c2)nc1)N1CCOCC1
2. CN(Cc1ccccc1)S(=O)(=O)c1ccc(N/N=C/c2ccc(O)c(O)c2)nc1

output:
1: -9.25; 2: 49.4

input: So what does the record say about inhibition of growth at 10 µM for O=S(=O)(NCc1cccc2ccccc12)c1ccc(N/N=C/c2ccc(O)c(O)c2)nc1 ?
output: -13.8
